Cited source: paper PMC5540273

Provide the recorded %Inh for the entries that follow.
Test system: HPK1
REPORTED CONDITIONS: concentration: 1 μM, replicates: in singlicate; n = 1;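 further: KINOMEscan kinase panel screen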
Write the value in % as a bare number.

Tell me the measured %Inh of CN1CCN(Cc2ccc(NC(=O)Nc3ccc(N(C)c4ccnc(Nc5ccc(CS(C)(=O)=O)cc5)n4)cc3)cc2)CC1.Cl [GW827654] , please.
99.6

Tell me the measured %Inh of COc1ccc(NC(=O)c2ccoc2)cc1-c1ccc(C(=O)NCC2CC2)cc1 [GW810437] , please.
0

Tell me the measured %Inh of N#Cc1cnc2cc(-c3cnc(CNCCN4CCOCC4)s3)ccc2c1Nc1ccc(Oc2ccccc2)cc1 [GW664114] , please.
89

Tell me the measured %Inh of Cn1cc(-c2ccc3c(c2)CCN3C(=O)Cc2cc(F)cc(F)c2F)c2c(N)ncnc21 [GSK2634140] , please.
57

Tell me the measured %Inh of CCNc1nccc(-c2c(-c3ccc(F)cc3)ncn2C2CCN(C)CC2)n1 , please.
0

Tell me the measured %Inh of CN(C)CCOc1ccc(-c2cc(-c3ccc(Cl)c(O)c3)c(-c3ccncc3)[nH]2)cc1.Cl.Cl [SB-684387] , please.
39

Tell me the measured %Inh of Cl.N#CCc1ccc(Nc2nccc(Nc3ccc(Oc4ccccc4)cc3)n2)cc1 [GW639905] , please.
36

Tell me the measured %Inh of CC(C)c1nc(-c2cccc(NS(=O)(=O)c3c(F)cccc3F)c2)c(-c2ccnc(Nc3ccc(N4CCOCC4)nc3)n2)s1.Cl [GSK1723980] , please.
55

Tell me the measured %Inh of COc1cccc(NC(=O)NCCNc2ccnc(Nc3ccc(F)cc3)n2)c1 [GSK1379879] , please.
34

Tell me the measured %Inh of CS(=O)(=O)c1cccc(CNc2nc(Nc3ccc4c(c3)CCC(=O)N4)ncc2C(F)(F)F)c1 , please.
41

Tell me the measured %Inh of COc1cc(Nc2ccnc3cc(-c4ccncc4)ccc23)cc(OC)c1OC.Cl [GW494610] , please.
0

Tell me the measured %Inh of Cc1ccc(NC(=O)c2ccc(Cl)c(Cl)c2)cc1-c1ccc(C(=O)Nc2ccncc2)cc1 [GSK1398460] , please.
40

Tell me the measured %Inh of NCCC(NC(=O)c1cc(Br)c(-c2ccnc3[nH]ccc23)s1)c1ccccc1.O=C(O)C(F)(F)F.O=C(O)C(F)(F)F (stereo not drawn) [GSK1307810] , please.
69

Tell me the measured %Inh of Cc1ccccc1CC(=O)N1CCc2cc(-c3cn(C)c4ncnc(N)c34)ccc21 [GSK2603346] , please.
74

Tell me the measured %Inh of CN(c1ccc(NC(=O)N2CCN(CCCN3CCOCC3)CC2)cc1)c1ccnc(Nc2ccc(CS(C)(=O)=O)cc2)n1.Cl [GW830899] , please.
47

###

Provide the recorded %Inh for the entries that follow.
System: DYRK1A
REPORTED CONDITIONS: concentration: 1 μM, replicates: in singlicate; n = 1
# number then unit; no other words

Tell me the measured %Inh of CCNc1nccc(-c2c(-c3ccc(F)cc3)ncn2C2CCN(C)CC2)n1 , please.
0%

Tell me the measured %Inh of Nc1ncc(-c2cn[nH]c2)c2scc(-c3ccc4c(c3)CCN4C(=O)Cc3ccccc3)c12 [GSK2593067] , please.
20%

Tell me the measured %Inh of Cc1ccc(C)c(NC(=O)Nc2ccc(C)c(-c3ccc(C(=O)Nc4ccncc4)cc3)c2)c1 [GSK1398473] , please.
36%

Tell me the measured %Inh of Fc1cc(Cl)ccc1Nc1ccnc2cc(-c3ccc(CN4CCSCC4)o3)ccc12 [GW560106] , please.
0%

Tell me the measured %Inh of CCn1c(-c2nonc2N)nc2c(-c3ccccc3)ncc(OCCCN)c21.O=C(O)C(F)(F)F.O=C(O)C(F)(F)F [GSK260205] , please.
23%
